Reference for the values: patent US20120258960A1

# target.of.assay: purified, recombinant human DPIV (Homo sapiens)
# assay.name: Measurement of DPIV activity (fluorogenic substrate (Ala-Pro)2-R110)
property.measured: IC50 (µM)

{"molecule": "NC(CC(=O)Nc1cccc(NC(=O)C(O)C(N)Cc2ccccc2)c1)Cc1cc(F)ccc1F (stereo not shown) [drawing 64]", "target.of.assay": "purified, recombinant human DPIV (Homo sapiens)", "readout.value": 0.5}

A. NC(CC(=O)NCCCCCNC(=O)C(O)C(N)Cc1ccccc1)Cc1ccccc1 (stereo not shown) [drawing 27]
B. CCCCCCCCCCCC(=O)OC(C(=O)NCC(C)(C)CNC(=O)CC(N)Cc1cc(F)ccc1F)C(N)Cc1ccccc1 (stereo not shown) [drawing 47]
Input: # argmax over IC50 for candidates A and B Respond using the label that marks the chosen record.
Output: A
(A: 2.67 µM, B: 0.6 µM)

* * *

# System: T lymphocytes
# assay.name: Inhibition of proliferation of PHA-stimulated T lymphocytes (tritium thymidine incorporation)
# Format: cell-based
# condition: Homo sapiens, T-lymphocyte, 1 μg/ml Phytohemagglutinine, 48 hours, test compounds 0.1-250 μM, read-out: T cells IC50
property.measured: IC50 (µM)
I only need the number, in µM, no unit after it.

Input: IC50 lookup needed for CC(C)(CNC(=O)CC(N)Cc1cc(F)ccc1F)CNC(=O)C(OC(=O)CCCc1ccccc1)C(N)Cc1ccccc1 (stereo not shown) [drawing 255] , thanks.
Output: 3

Input: // next record CC(C)(CNCC(N)Cc1cc(F)ccc1F)CNC(=O)C(O)C(N)Cc1ccccc1 (stereo not shown) [drawing 276]
Output: 30.3

Input: Again, but for NC(CC(=O)NCCCNC(=O)C(O)C(N)Cc1ccccc1)Cc1cc(F)ccc1F (stereo not shown) [drawing 237]
Output: 70

* * *

# target.of.assay: purified, recombinant human DPIV (Homo sapiens, UniProt P27487)
# Sequence (P27487 whole entry): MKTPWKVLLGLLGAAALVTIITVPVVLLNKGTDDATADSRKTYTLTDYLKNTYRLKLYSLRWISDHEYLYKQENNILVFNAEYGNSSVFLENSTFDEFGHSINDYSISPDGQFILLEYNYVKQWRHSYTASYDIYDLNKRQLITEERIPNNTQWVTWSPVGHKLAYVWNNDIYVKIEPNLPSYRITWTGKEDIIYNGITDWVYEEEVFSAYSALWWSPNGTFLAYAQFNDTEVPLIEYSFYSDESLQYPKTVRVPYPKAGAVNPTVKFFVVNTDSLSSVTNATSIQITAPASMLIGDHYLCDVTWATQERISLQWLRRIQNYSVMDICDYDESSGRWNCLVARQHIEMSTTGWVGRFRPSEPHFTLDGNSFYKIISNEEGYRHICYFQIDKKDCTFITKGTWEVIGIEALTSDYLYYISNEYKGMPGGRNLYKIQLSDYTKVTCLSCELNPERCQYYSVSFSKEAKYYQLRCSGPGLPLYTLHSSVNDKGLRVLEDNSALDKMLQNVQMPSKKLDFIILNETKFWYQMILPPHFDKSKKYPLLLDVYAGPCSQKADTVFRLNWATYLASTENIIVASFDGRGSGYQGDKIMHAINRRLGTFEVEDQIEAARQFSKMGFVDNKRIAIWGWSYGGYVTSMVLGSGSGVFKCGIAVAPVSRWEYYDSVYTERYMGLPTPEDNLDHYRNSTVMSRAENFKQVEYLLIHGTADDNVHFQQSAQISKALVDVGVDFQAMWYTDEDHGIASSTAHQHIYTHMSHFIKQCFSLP
# assay.name: Measurement of DPIV activity (fluorogenic substrate (Ala-Pro)2-R110)
property.measured: IC50 (µM)

Answered examples (8):
{"compound": "CC(C)(CNC(=O)CC(N)Cc1cc(F)ccc1F)CNC(=O)C(O)C(N)Cc1ccc(-c2ccsc2)cc1 (stereo not shown) [drawing 74]", "readout.value": 0.1}
{"compound": "CN(CCCN(C)C(=O)C(O)C(N)Cc1ccccc1)C(=O)CC(N)Cc1cc(F)ccc1F (stereo not shown) [drawing 32]", "readout.value": 0.178}
{"compound": "CC(C)(CNC(=O)CC(N)C(=O)N1CCSC1)CNC(=O)C(O)C(N)Cc1ccccc1 (stereo not shown) [drawing 30]", "readout.value": 2.12}
{"compound": "CCCCCCCCCCCCCCCC(=O)OC(C(=O)NCCCCNC(=O)CC(N)Cc1cc(F)ccc1F)C(N)Cc1ccccc1 (stereo not shown) [drawing 53]", "readout.value": 8}
{"compound": "NC(CC(=O)N1CCN(C(=O)C(O)C(N)Cc2ccccc2)CC1)Cc1ccccc1 (stereo not shown) [drawing 17]", "readout.value": 0.8}
{"compound": "CCCCCCCCCCCCCCCCOC(C(=O)NCC(C)(C)CNC(=O)CC(N)Cc1cc(F)ccc1F)C(N)Cc1ccccc1 (stereo not shown)", "readout.value": 25}
{"compound": "NC(CC(=O)NCCCCNC(=O)C(O)C(N)Cc1ccccc1)Cc1cc(F)ccc1F (stereo not shown) [drawing 25]", "readout.value": 0.08}
{"compound": "CC(C)(NC(=O)CC(N)Cc1ccccc1)C(C)(C)NC(=O)C(O)C(N)Cc1ccccc1 (stereo not shown) [drawing 20]", "readout.value": 13.8}

1. CCCCCCCCCCCCCCCC(=O)OC(C(=O)NCC(C)(C)CNC(=O)CC(N)Cc1cc(F)ccc1F)C(N)Cc1ccccc1 (stereo not shown) [drawing 43]
2. CC(C)(CNC(=O)CC(N)Cc1ccccc1)CNC(=O)CC(O)C(N)Cc1ccccc1 (stereo not shown) [drawing 24]
3. NC(CC(=O)NCCNC(=O)C(O)C(N)Cc1ccccc1)Cc1ccc2ccccc2c1 (stereo not shown) [drawing 13]
Input: // ranking: key=IC50, reverse=True Put the labels in the order asked and list them.
Output: 3, 2, 1
(3: 28 µM, 2: 2.2 µM, 1: 0.06 µM)

1. NC(CC(=O)N1CCN(C(=O)CC(O)C(N)Cc2ccccc2)CC1)Cc1ccccc1 (stereo not shown) [drawing 16]
2. CCCCCCCCOC(C(=O)NCC(C)(C)CNC(=O)CC(N)Cc1cc(F)ccc1F)C(N)Cc1ccccc1 (stereo not shown)
Input: Which entry has a larger number for IC50, 1 or 2 ? // output: label of the selected item
Output: 2
(2: 14 µM, 1: 0.9 µM)
